Target: furin (Homo sapiens)
Experiment: Surface plasmon resonance binding to immobilized furin
Conditions: replicate #1; read-out: KD #1
Sequence (P09958 108-794): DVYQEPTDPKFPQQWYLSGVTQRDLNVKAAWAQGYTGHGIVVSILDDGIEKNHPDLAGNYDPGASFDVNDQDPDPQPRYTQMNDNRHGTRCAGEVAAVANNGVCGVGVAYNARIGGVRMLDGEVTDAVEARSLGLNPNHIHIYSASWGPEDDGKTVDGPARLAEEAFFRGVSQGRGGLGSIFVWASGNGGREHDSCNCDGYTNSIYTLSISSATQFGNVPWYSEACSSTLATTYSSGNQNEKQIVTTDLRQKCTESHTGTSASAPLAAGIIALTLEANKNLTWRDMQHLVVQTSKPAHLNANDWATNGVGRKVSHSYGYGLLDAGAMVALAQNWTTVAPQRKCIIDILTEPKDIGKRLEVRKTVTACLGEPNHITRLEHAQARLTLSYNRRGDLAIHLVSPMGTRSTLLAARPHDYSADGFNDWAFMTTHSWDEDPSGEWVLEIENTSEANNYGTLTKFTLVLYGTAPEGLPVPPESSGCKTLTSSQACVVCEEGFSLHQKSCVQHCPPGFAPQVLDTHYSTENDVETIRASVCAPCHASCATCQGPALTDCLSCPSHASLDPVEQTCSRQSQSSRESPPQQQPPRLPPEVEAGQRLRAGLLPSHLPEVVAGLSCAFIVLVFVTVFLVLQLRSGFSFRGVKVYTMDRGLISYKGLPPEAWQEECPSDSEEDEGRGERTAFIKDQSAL
measurement label: Kd

These recorded examples may help you get a feel for the data.
Looking up CC(=O)NCC1CCN(Cc2cc(Oc3cnc(N4CCN(CCC(=O)O)CC4)nc3)nc(-c3cc(Cl)cc(Cl)c3)c2)CC1 [Inhibitor 3] , I found its Kd recorded as 0.00276 µM

Reported Kd of COCCN1CCN(c2ccc(Oc3cc(CN4CCC(CNC(C)=O)CC4)cc(-c4cc(Cl)cc(Cl)c4)n3)cn2)CC1 [Inhibitor 1] : 0.0487 µM

# evaluate next
// N=C(N)NCCC[C@@H](N)C(=O)N[C@H](CCCNC(=N)N)C(=O)N[C@H](CCCNC(=N)N)C(=O)N[C@H](CCCNC(=N)N)C(=O)N[C@H](CCCNC(=N)N)C(=O)N[C@H](CCCNC(=N)N)C(N)=O [hexa-D-arginine, reference compound] : Kd value = 0.437 µM

###

Molecular target: furin (Homo sapiens, UniProt P09958)
Assay: MALDI-TOF-MS-based furin activity assay, TGFβ-derived substrate
Format: biochemical
Design: made in house
Details: TGFβ substrate, replicate #2; read-out: IC50 #2
Sequence (P09958 108-574 limits assumed): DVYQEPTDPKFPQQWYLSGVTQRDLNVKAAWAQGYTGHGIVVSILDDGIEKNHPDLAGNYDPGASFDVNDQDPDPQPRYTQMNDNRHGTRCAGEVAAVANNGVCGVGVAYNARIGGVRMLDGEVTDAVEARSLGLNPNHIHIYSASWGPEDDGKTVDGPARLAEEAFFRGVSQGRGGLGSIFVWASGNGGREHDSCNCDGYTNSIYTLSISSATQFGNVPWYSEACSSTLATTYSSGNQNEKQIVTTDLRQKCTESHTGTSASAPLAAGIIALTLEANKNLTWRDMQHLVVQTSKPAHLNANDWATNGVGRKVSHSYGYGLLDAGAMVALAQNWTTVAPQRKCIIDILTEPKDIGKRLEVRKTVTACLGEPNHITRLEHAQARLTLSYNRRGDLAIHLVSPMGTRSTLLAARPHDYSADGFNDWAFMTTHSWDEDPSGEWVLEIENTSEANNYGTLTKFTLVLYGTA
Consider the following compounds and their measured IC50 readings.
Give your result as the value with the unit written after it.

Lookup result for COCCN1CCN(c2ccc(Oc3cc(CN4CCC(CNC(C)=O)CC4)cc(-c4cc(Cl)cc(Cl)c4)n3)cn2)CC1 [Inhibitor 1] ; measured IC50: 2.4 nM

Let us move to another entry and its IC50.
Looking up CC(=O)NCC1CCN(Cc2cc(Oc3cnc(N4CCN(CCC(=O)O)CC4)nc3)nc(-c3cc(Cl)cc(Cl)c3)c2)CC1 [Inhibitor 3] , I found its IC50 recorded as 2.3 nM

###

# Kd annotations
Target: furin (Homo sapiens, UniProt P09958)
Test: Surface plasmon resonance binding to immobilized furin
Conditions: replicate #2; read-out: KD #2
Just the number please, in nM, no unit attached.

# count of solved cases: 2
Entry "COCCN1CCN(c2ccc(Oc3cc(CN4CCC(CNC(C)=O)CC4)cc(-c4cc(Cl)cc(Cl)c4)n3)cn2)CC1" ; Kd = 24.7

Just so you know, measured Kd for N=C(N)NCCC[C@@H](N)C(=O)N[C@H](CCCNC(=N)N)C(=O)N[C@H](CCCNC(=N)N)C(=O)N[C@H](CCCNC(=N)N)C(=O)N[C@H](CCCNC(=N)N)C(=O)N[C@H](CCCNC(=N)N)C(N)=O [hexa-D-arginine, reference compound] came out at 966

// switching to the query compound
Kd measured on "CC(=O)NCC1CCN(Cc2cc(Oc3cnc(N4CCN(CCC(=O)O)CC4)nc3)nc(-c3cc(Cl)cc(Cl)c3)c2)CC1" = 5.07
